system-name: Heat shock factor protein 1 (Homo sapiens) (UniProt Q00613)
Sequence (Q00613 whole entry, looked up): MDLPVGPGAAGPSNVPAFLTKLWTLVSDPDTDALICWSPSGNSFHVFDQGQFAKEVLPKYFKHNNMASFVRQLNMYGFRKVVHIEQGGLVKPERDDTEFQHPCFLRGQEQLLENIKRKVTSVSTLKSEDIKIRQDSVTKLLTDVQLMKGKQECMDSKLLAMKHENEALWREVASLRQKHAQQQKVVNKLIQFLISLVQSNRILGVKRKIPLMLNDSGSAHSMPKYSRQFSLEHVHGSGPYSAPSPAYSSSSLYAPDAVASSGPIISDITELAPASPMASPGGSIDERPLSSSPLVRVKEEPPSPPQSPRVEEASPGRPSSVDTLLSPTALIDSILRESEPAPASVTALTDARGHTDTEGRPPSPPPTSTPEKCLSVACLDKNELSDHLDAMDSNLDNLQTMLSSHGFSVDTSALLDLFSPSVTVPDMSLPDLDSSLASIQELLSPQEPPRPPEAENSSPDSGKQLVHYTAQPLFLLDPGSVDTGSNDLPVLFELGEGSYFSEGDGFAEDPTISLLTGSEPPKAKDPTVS
test: ATG_HSE_CIS: Attagene CIS-FACTORIAL HepG2 Assay for human Heat Shock Transcription Factor 1 (HSE) (AID 2282953)
test-parameters: HepG2 HSE cis-reporter, Attagene RNA transcription; actives raise or lower the signal
Experimental: ATG_CIS is a cell-based, multiplexed-readout assay that uses HepG2, a human liver cell line, with measurements taken at 24 hours after chemical dosing in a 24-well plate.ATG_HSE_CIS is one of 52 assay component(s) measured or calculated from the ATG_CIS assay. […] This assay endpoint, ATG_HSE_CIS, was analyzed with bidirectional fitting relative to DMSO as the negative control and baseline of activity. […]
Calls of active or inactive are those of the source. How the source made its calls: active means hit-call score of the fitted dose curve at least 0.9, where 1 is the maximum; inactive means score below 0.9.
Please answer using one outcome listed in Y for active, N for inactive

Some entries whose results are on file:
CN(Cc1cnc2nc(N)nc(N)c2n1)c1ccc(C(=O)N[C@@H](CCC(=O)O)C(=O)O)cc1 ... N
FC(OC(F)(F)C(F)(F)C(F)(F)F)C(F)(F)F (stereo unspecified) ... N
CCC(=O)O ... N
CCCCCCCCCCCC[N+](C)(C)CCCCCCCCCCCC ... N
FC(F)=C(F)C(F)(F)C(F)(F)C(F)(F)C(F)F ... N

Test call for this molecule, please: Clc1ccc2c(Cl)ccnc2c1 N

Hi, sorry to bother you, what did the test record for COc1ccccc1NC(=O)c1cc2ccccc2cc1O ? Y

Identify the outcome logged in this assay for the molecule shown: CCC(C)c1nccnc1OC (stereo unspecified) N

Recorded test call requested for Nc1cc(Cl)c(-c2cc(Cl)c(N)cc2Cl)cc1Cl Y

// return assay outcome for O=S(=O)(O)c1ccccc1 N
